- Species on record: Rattus norvegicus
- METHOD_DESCRIPTION: Open TG-GATES - Regimen: Single
- Format: toxicity, organism-based, Sprague-Dawley
- Design: regimen Single, gender Male, age 6 weeks
- CONDITIONS_USED: in vivo, po, 0 mg/kg, 9 h, tissue Plasma, route gavage, dose level Control
EXPERIMENTAL_ENDPOINT: PL (mg/dL)
Numbers only, in mg/dL.

# MOLECULE, READOUT_UNIT, PL
rows = [
    ("Nc1ccc(Cc2ccc(N)cc2)cc1", "mg/dL", 129.6),
]

For each listed entry, give its PL.
1. CC(S)C(=O)NCC(=O)O (stereo not given)
2. CC(=O)[C@@]1(O)CC[C@H]2[C@@H]3C=C(Cl)C4=CC(=O)CC[C@]4(C)[C@H]3CC[C@@]21C
3. CN(C)CCCN1c2ccccc2Sc2ccc(Cl)cc21
4. CCCCNC(=O)NS(=O)(=O)c1ccc(C)cc1 [TOLBUTAMIDE]
5. CN(C/C=C/C#CC(C)(C)C)Cc1cccc2ccccc12
6. O=C(O)c1ccccc1Nc1ccccc1

1. 120.2
2. 128.4
3. 132.6
4. 132.8
5. 136.4
6. 130.6

For each listed entry, give its PL.
1. O=c1ccc2ccccc2o1
2. CN(CCOc1ccc(CC2SC(=O)NC2=O)cc1)c1ccccn1.O=C(O)/C=C\C(=O)O (stereo not given) [ROSIGLITAZONE MALEATE]
3. C=C[C@H]1C[N@@]2CC[C@H]1C[C@@H]2[C@@H](O)c1ccnc2ccc(OC)cc12
4. CCN(CC)C(=S)SSC(=S)N(CC)CC
5. NS(=O)(=O)c1cc(C(=O)O)c(NCc2ccco2)cc1Cl [FUROSEMIDE]
6. COc1cc2ncnc(Nc3ccc(F)c(Cl)c3)c2cc1OCCCN1CCOCC1
7. COc1ccc([C@@H]2Sc3ccccc3N(CCN(C)C)C(=O)[C@@H]2OC(C)=O)cc1
8. CCO

[139, 137.4, 131.6, 132.4, 142, 139.6, 119.4, 133.4]

----------
Assign Fbg to each entry below.
- Species on record: Rattus norvegicus
- METHOD_DESCRIPTION: Open TG-GATES - Regimen: Daily Repeat
- Format: toxicity, organism-based, Sprague-Dawley
- Parameters: regimen Daily Repeat, gender Male, age 6 weeks
- CONDITIONS_USED: in vivo, po, 100 mg/kg, 72 h, tissue Blood, route gavage, dose level Low, time 3 day
One number for each entry, in mg/dL.

# MOLECULE, EXPERIMENTAL_ENDPOINT, READOUT_UNIT, TEST_VALUE
records = [
    ("O=C(O)c1ccccc1Nc1ccccc1", "Fbg", "mg/dL", 286.4),
    ("CCCCNC(=O)NS(=O)(=O)c1ccc(C)cc1 [TOLBUTAMIDE]", "Fbg", "mg/dL", 283.2),
    ("CC(S)C(=O)NCC(=O)O (centres undefined)", "Fbg", "mg/dL", 299.8),
]

Return Fbg (reported value) for this molecule: CC(=O)[C@@]1(O)CC[C@H]2[C@@H]3C=C(Cl)C4=CC(=O)CC[C@]4(C)[C@H]3CC[C@@]21C 311.6

----------
- Organism: Rattus norvegicus
- METHOD_DESCRIPTION: Open TG-GATES - Regimen: Single
- Format: toxicity, organism-based, Sprague-Dawley
- Design: regimen Single, gender Male, age 6 weeks
- CONDITIONS_USED: in vivo, po, 0 mg/kg, 9 h, tissue Plasma, route gavage, dose level Control
EXPERIMENTAL_ENDPOINT: IP (mg/dL)
One number for each entry, in mg/dL.

Reference set, count: 3
# INPUT_SMILES, EXPERIMENTAL_ENDPOINT, TEST_VALUE
data = [
    ("CC(=O)[C@@]1(O)CC[C@H]2[C@@H]3C=C(Cl)C4=CC(=O)CC[C@]4(C)[C@H]3CC[C@@]21C", "IP", 9.6),
    ("CCO", "IP", 9.8),
    ("CN(C/C=C/C#CC(C)(C)C)Cc1cccc2ccccc12", "IP", 9.8),
]

Now, please, on to the next compound.
Return IP (reported value) for this compound: CN(C)CCCN1c2ccccc2Sc2ccc(Cl)cc21 10.2

----------
- Species: Rattus norvegicus
- METHOD_DESCRIPTION: Open TG-GATES - Regimen: Daily Repeat
- Type: toxicity, organism-based, Sprague-Dawley
- Design: regimen Daily Repeat, gender Male, age 6 weeks
- CONDITIONS_USED: in vivo, po, 0 mg/kg, 72 h, tissue Blood, route gavage, dose level Control, time 3 day
EXPERIMENTAL_ENDPOINT: Plat (x10_4/uL)
Answers are plain numbers, in x10_4/uL.

For each listed entry, give its Plat.
1. O=c1ccc2ccccc2o1
2. CC(=O)[C@@]1(O)CC[C@H]2[C@@H]3C=C(Cl)C4=CC(=O)CC[C@]4(C)[C@H]3CC[C@@]21C

[97.8, 116.7]

For each listed entry, give its Plat.
1. CCCCNC(=O)NS(=O)(=O)c1ccc(C)cc1 [TOLBUTAMIDE]
2. COc1ccc([C@@H]2Sc3ccccc3N(CCN(C)C)C(=O)[C@@H]2OC(C)=O)cc1

1. 112.3
2. 126.4

For each listed entry, give its Plat.
1. O=C(O)c1ccccc1Nc1ccccc1
2. CN(CCOc1ccc(CC2SC(=O)NC2=O)cc1)c1ccccn1.O=C(O)/C=C\C(=O)O (centres undefined) [ROSIGLITAZONE MALEATE]
3. NS(=O)(=O)c1cc(C(=O)O)c(NCc2ccco2)cc1Cl [FUROSEMIDE]
4. CCN(CC)C(=S)SSC(=S)N(CC)CC
5. CN(C/C=C/C#CC(C)(C)C)Cc1cccc2ccccc12

[121.2, 136, 114.8, 112, 117.2]

----------
- Organism: Rattus norvegicus
- METHOD_DESCRIPTION: Open TG-GATES - Regimen: Daily Repeat
- Type: toxicity, organism-based, Sprague-Dawley
- Parameters: regimen Daily Repeat, gender Male, age 6 weeks
- CONDITIONS_USED: in vivo, po, 0 mg/kg, […], tissue Plasma, route gavage, dose level Control, time 7 day
EXPERIMENTAL_ENDPOINT: TC
Express your answer as a number followed by its unit.

Reference set, count: 4
# MOLECULE, EXPERIMENTAL_ENDPOINT, TEST_VALUE
rows = [
    ("O=C(O)c1ccccc1Nc1ccccc1 [FENAMIC ACID]", "TC", "73 mg/dL"),
    ("CCN(CC)C(=S)SSC(=S)N(CC)CC", "TC", "71.4 mg/dL"),
    ("COc1ccc([C@@H]2Sc3ccccc3N(CCN(C)C)C(=O)[C@@H]2OC(C)=O)cc1 [DILTIAZEM]", "TC", "82.8 mg/dL"),
    ("Nc1ccc(Cc2ccc(N)cc2)cc1", "TC", "70.6 mg/dL"),
]

For each listed entry, give its TC.
1. CCCCNC(=O)NS(=O)(=O)c1ccc(C)cc1 [TOLBUTAMIDE]
2. CCO [ALCOHOL]
3. CC(=O)[C@@]1(O)CC[C@H]2[C@@H]3C=C(Cl)C4=CC(=O)CC[C@]4(C)[C@H]3CC[C@@]21C [CHLORMADINONE]

1. 67.2 mg/dL
2. 71.4 mg/dL
3. 76 mg/dL

For each listed entry, give its TC.
1. CC(S)C(=O)NCC(=O)O (stereo not given) [TIOPRONIN]
2. CN(CCOc1ccc(CC2SC(=O)NC2=O)cc1)c1ccccn1.O=C(O)/C=C\C(=O)O (stereo not given) [ROSIGLITAZONE MALEATE]
3. CCCCC1C(=O)N(c2ccccc2)N(c2ccccc2)C1=O [PHENYLBUTAZONE]

1. 83.2 mg/dL
2. 76.6 mg/dL
3. 74.4 mg/dL

----------
- Organism: Rattus norvegicus
- METHOD_DESCRIPTION: Open TG-GATES - Regimen: Daily Repeat
- Assay type: toxicity, organism-based, Sprague-Dawley
- Set-up: regimen Daily Repeat, gender Male, age 6 weeks
- CONDITIONS_USED: in vivo, po, 1000 mg/kg, 72 h, tissue Plasma, route gavage, dose level High, time 3 day
Assign ALT to each entry below.
One number for each entry, in IU/L.

# COMPOUND, EXPERIMENTAL_ENDPOINT, READOUT_UNIT, TEST_VALUE
measured = [
    ("CC(=O)[C@@]1(O)CC[C@H]2[C@@H]3C=C(Cl)C4=CC(=O)CC[C@]4(C)[C@H]3CC[C@@]21C", "ALT", "IU/L", 53),
]

For each listed entry, give its ALT.
1. CCCCNC(=O)NS(=O)(=O)c1ccc(C)cc1 [TOLBUTAMIDE]
2. CC(S)C(=O)NCC(=O)O (centres undefined)
3. O=C(O)c1ccccc1Nc1ccccc1

1: 40.8; 2: 49.2; 3: 37.7

Origin of measurements: ChEMBL document CHEMBL3885861
